Protocol details: chemical genetic growth profiling, strain panel (AID 1159580);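 note: tested at 20 µM; growth read once vehicle control cultures reached saturation at 30 °C; 1 = growth at the plate median or of vehicle wells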
Condition parameters: S. cerevisiae deletion strains, growth OD, locus YJR066W, strain TOR1
Screen size: about 5,500 compounds; about 2,000 (36%) were called active. About 18% were inconclusive and are not listed. Cut-off read from the data, not from the text of the source: active = normalized growth mostly below about 0.91 (no sharp cut-off); inconclusive = no clear call, values can overlap the other calls; inactive = mostly above about 0.92. This is one part of the list.
Outcomes: active, inactive

Compound | Qualitative label
O=C1CC[C@]23C=CC(=O)NCCCCNCCCNC(=O)/C=C/c4ccc(c2c4)O[C@@H]3C1 | inactive
N#CCC(=O)c1cccc(CSc2ccccc2Cl)c1 | active
CCC(C)Cn1c(Sc2ncc([N+](=O)[O-])s2)n[nH]c1=O (configuration not stated) | inactive
CN(C)C(=O)Oc1cc(OC(=O)N(C)C)cc(C(O)CNC(C)(C)C)c1 (configuration not stated) | inactive
COc1cc2c3cc1Oc1cc(ccc1O)C[C@@H]1c4c(cc(OC)c(O)c4Oc4ccc(cc4)C[C@@H]3N(C)CC2)CC[N+]1(C)C | inactive
O=c1c(-c2ccc(O)cc2)coc2cc(O)cc(O)c12 | inactive
CC(O)(CNCc1ccc(Cl)cc1)CSc1ccccc1Cl (configuration not stated) | inactive

###

Protocol details: chemical genetic growth profiling, strain panel (AID 1159580);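 note: tested at 20 µM; growth read once vehicle control cultures reached saturation at 30 °C; 1 = growth at the plate median or of vehicle wells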
Condition parameters: S. cerevisiae deletion strains, growth OD, locus YML016C, strain PPZ1, stronger effect = lower value
In all, about 5,500 compounds went through this assay and about 2,000 (36%) were called active. Roughly 18% stayed inconclusive and do not appear here. This is one part of the list.
The following compounds are listed with their measured normalized growth values.
Observable: normalized growth

Compound | Val
C=C1C2CC[C@@]3(C)[C@H](c4ccoc4)OC(=O)C[C@]13O[C@H]1CC(=O)C(C)(C)[C@H](C(O)C(=O)OC)[C@@]21C (stereo partly drawn) | 1.01
CC(=O)N(O)CCCCCNC(=O)CCC(=O)N(O)CCCCCNC(=O)CCC(=O)N(O)CCCCCN | 1.01
CC(=O)CC(c1ccccc1)c1c(O)c2ccccc2oc1=O (stereo not drawn) | 1.01

###

Protocol details: chemical genetic growth profiling, strain panel (AID 1159580);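 note: tested at 20 µM; growth read once vehicle control cultures reached saturation at 30 °C; 1 = growth at the plate median or of vehicle wells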
Condition parameters: S. cerevisiae deletion strains, growth OD, locus YDR363W, strain ESC2, stronger effect = lower value
Among all 5,500 compounds or so, about 2,000 (36%) were called active. Inconclusive results (about 18%) are left out. The list shows a part of the results.
normalized growth less than 1 is condition met; normalized growth greater than or equal to 1 is condition not met.

Compound | Qualitative label
Cc1ccc(C(=O)O[C@H](C(=O)O)[C@H](OC(=O)c2ccc(C)cc2)C(=O)O)cc1 | condition not met
CC(=O)/C(C)=N\O | condition not met
CN1CCN(C2Cc3ccccc3Sc3ccc(Cl)cc32)CC1 (stereo not drawn) | condition met
N#CC(C#N)=Cc1ccc([N+](=O)[O-])c(O)c1 | condition met
O=c1[nH]c(=O)n([C@H]2C[C@H](O)[C@@H](CO)O2)cc1/C=C/Br | condition not met
O=C1c2c(O)ccc(O)c2C(=O)c2c(NCCNCCO)ccc(NCCNCCO)c21 | condition met
CN1CCC23CCCC[C@H]2C1Cc1ccc(O)cc13 (stereo partly drawn) | condition not met

###

Protocol details: chemical genetic growth profiling, strain panel (AID 1159580);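 note: tested at 20 µM; growth read once vehicle control cultures reached saturation at 30 °C; 1 = growth at the plate median or of vehicle wells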
Condition parameters: S. cerevisiae deletion strains, growth OD, locus YNL071W, strain lat1
Hit rate of the full screen: of about 5,500 compounds, about 2,000 (36%) were called active. Not shown: some 18% with an inconclusive outcome. Rule as the data show it: active = normalized growth mostly below about 0.91 (no sharp cut-off); inconclusive = no clear call, values can overlap the other calls; inactive = mostly above about 0.92. The list shows a part of the results.
Outcomes: active, inactive

Compound | Qualitative label
Cn1c(=O)c2[nH]c(C3CCCC3)nc2n(C)c1=O | inactive
CC1=CCc2c(cc3oc(C)cc(=O)c3c2O)OC1 | inactive
O=C(O)c1nc2cc(Cl)c(Cl)cc2[nH]c1=O | inactive
O=C1CC[C@]23C=CC(=O)NCCCCNCCCNC(=O)/C=C/c4ccc(c2c4)O[C@@H]3C1 | inactive
CC(=O)OCC(=O)[C@H]1CCC2C3CC=C4C[C@@H](O)CC[C@]4(C)C3CC[C@@]21C (stereo not given in full) | active
S=c1ccss1 | inactive
O=c1[nH]c2cc(Cl)c(Cl)cc2[nH]c1=O | inactive
O=C1CN2Cc3c(ccc(Cl)c3Cl)N=C2N1 | inactive
CC(=O)[C@H]1CCC2C3CC=C4C[C@@H](OC(=O)CCC(=O)O)CC[C@]4(C)C3CC[C@@]21C (stereo not given in full) | active
CC(=O)[C@H]1CCC2C3CC=C4C[C@@H](O)CC[C@]4(C)C3CC[C@@]21C (stereo not given in full) | active
CCCCCCCCCCCCCCCC[n+]1ccccc1 | active
CC(=O)O.CC(=O)O.[Cd] | active
CCCCOc1cc(CC2CNC(=O)N2)ccc1OC (stereo not given) | inactive
CC(=O)O[C@@H]1CC2C(C)(C)CCC(=O)[C@]2(C)C2CC[C@@]3(C)[C@H](c4ccoc4)OC(=O)C4OC43[C@@]21C (stereo not given in full) | inactive
CCC(CCC(C)[C@H]1CCC2C3CC=C4C[C@@H](O)CC[C@]4(C)C3CC[C@@]21C)C(C)C (stereo not given in full) | inactive
CCCCCCCCCc1ccc(O)cc1 | active
CN1CCOC(c2ccccc2)c2ccccc2C1 (stereo not given) | inactive
CC(=O)OCC(=O)[C@@]1(O)CCC2C3CC[C@@H]4C[C@H](O)CC[C@]4(C)C3C(=O)C[C@@]21C (stereo not given in full) | inactive
NCCc1ccc(O)c(O)c1 | inactive
NCCc1ccc(O)cc1 | inactive
